Recorded values, source patent US8609699B2.

Consider the following molecules and their measured EC50 readings.
Molecular target: recombinant human liver GK (Homo sapiens, UniProt P35557)
Construct: made in house; host or cells: E. coli
Sequence (P35557 1-466 isoform P35557-2): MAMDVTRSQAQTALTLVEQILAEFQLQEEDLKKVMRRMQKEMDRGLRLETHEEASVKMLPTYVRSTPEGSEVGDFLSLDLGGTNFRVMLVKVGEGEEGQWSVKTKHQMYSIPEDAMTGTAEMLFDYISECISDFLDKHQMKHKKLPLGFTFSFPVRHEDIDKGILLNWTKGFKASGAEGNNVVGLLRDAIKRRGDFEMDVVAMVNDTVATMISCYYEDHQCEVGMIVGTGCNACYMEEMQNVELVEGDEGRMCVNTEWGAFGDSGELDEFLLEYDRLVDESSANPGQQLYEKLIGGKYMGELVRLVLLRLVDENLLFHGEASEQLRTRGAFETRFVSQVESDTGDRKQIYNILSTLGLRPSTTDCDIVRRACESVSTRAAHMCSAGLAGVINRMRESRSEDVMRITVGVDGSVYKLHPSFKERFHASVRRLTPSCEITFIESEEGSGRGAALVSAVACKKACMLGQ
Assay: Glucokinase-activating effect (Thio-NADH, G6PDH-coupled assay)
Format: biochemical
Conditions: final glucose 2.5 mM; 30° C; racemates, comparison with WO2007/007910
Write the value in nM as a bare number.

O=C1CCC(c2cc3[nH]c(-c4ccccn4)nc3cc2Oc2ccc(C(=O)N3CCC3)cc2)O1 (racemic) [Example 1 Racemate] ... 530

Prompt: Quote EC50 reported for CN(C)C(=O)Cc1ccc(Oc2cc3nc(-c4ccccn4)[nH]c3cc2C2CCC(=O)O2)cc1 (racemic) [Example 7 Racemate] please.
Response: 470

Prompt: Quote EC50 reported for COCc1ccc(Oc2cc3nc(-c4ccccn4)[nH]c3cc2C2CCC(=O)O2)cn1 (racemic) [Example 11 Racemate] please.
Response: 490

----------
Target: recombinant human liver GK (Homo sapiens, UniProt P35557)
Construct: made in house; host or cells: E. coli
Test: Glucokinase-activating effect (Thio-NADH, G6PDH-coupled assay)
Assay type: biochemical
Settings: final glucose 2.5 mM; 30° C; separated enantiomers
measurementType: EC50 (nM)
Write the value in nM as a bare number.

CCNC(=O)c1ccc(Oc2cc3nc(-c4ccccn4)[nH]c3cc2C2CCC(=O)O2)cn1 (single isomer, unassigned) [Example 6 A] ... 1830
O=C1CCC(c2cc3[nH]c(-c4ccccn4)nc3cc2Oc2ccc(C(=O)N3CCC3)cc2)O1 (single isomer, unassigned) [Example 1 A] ... 1910
COCc1ccc(Oc2cc3nc(-c4ccccn4)[nH]c3cc2C2CCC(=O)O2)cn1 (single isomer, unassigned) [Example 11 A] ... 16600
CN(C)C(=O)c1ccc(Oc2cc3nc(-c4ccccn4)[nH]c3cc2C2CCC(=O)O2)cn1 (single isomer, unassigned) [Example 4 B] ... 280

Prompt: Quote EC50 reported for CCNC(=O)c1ccc(Oc2cc3nc(-c4ccccn4)[nH]c3cc2C2CCC(=O)O2)cn1 (single isomer, unassigned) [Example 6 B] please.
Response: 240

Prompt: Quote EC50 reported for COCc1ccc(Oc2cc3nc(-c4ccccn4)[nH]c3cc2C2CCC(=O)O2)cn1 (single isomer, unassigned) [Example 11 B] please.
Response: 270
